target: human PI3Kα (Homo sapiens (Human), UniProt P42336); experiment: Human PI3Kα activity test (luciferin/luciferase ATP consumption, KinaseGlo); type: biochemical; conditions: PI3Kα (p110α/p85α), 50 μM PIP2, 2 μM ATP, 90 minutes; read-out: IC50 Human PI3Kα
Sequence (P42336 whole entry): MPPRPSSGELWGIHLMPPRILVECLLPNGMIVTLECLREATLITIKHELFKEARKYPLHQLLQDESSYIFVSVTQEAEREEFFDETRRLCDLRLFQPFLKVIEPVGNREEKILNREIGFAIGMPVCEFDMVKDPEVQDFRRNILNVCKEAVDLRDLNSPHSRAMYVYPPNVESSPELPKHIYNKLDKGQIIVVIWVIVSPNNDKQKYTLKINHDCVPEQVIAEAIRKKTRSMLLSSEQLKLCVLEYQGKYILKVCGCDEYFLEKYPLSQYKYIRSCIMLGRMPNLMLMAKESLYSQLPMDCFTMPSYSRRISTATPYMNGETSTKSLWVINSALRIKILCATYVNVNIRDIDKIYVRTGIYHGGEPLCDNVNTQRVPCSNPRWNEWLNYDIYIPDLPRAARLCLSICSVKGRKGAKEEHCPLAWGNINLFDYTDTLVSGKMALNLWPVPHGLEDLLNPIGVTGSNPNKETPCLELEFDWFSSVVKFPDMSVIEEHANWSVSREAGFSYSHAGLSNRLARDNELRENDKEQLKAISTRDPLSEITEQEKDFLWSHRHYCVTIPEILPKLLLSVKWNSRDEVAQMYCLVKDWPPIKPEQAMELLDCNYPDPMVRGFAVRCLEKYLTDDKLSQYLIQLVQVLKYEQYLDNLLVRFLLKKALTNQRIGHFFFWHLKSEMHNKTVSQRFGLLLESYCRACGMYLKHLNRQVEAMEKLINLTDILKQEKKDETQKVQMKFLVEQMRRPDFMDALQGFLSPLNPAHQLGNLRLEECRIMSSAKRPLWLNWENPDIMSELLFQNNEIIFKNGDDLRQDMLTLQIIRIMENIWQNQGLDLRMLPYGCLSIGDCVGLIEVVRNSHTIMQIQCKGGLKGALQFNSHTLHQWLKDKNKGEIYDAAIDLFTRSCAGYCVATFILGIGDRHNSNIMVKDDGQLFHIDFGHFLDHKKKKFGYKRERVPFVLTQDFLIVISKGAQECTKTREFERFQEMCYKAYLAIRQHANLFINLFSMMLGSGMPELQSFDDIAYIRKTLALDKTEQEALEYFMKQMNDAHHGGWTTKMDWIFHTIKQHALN
Sequence (P27986 whole entry partner): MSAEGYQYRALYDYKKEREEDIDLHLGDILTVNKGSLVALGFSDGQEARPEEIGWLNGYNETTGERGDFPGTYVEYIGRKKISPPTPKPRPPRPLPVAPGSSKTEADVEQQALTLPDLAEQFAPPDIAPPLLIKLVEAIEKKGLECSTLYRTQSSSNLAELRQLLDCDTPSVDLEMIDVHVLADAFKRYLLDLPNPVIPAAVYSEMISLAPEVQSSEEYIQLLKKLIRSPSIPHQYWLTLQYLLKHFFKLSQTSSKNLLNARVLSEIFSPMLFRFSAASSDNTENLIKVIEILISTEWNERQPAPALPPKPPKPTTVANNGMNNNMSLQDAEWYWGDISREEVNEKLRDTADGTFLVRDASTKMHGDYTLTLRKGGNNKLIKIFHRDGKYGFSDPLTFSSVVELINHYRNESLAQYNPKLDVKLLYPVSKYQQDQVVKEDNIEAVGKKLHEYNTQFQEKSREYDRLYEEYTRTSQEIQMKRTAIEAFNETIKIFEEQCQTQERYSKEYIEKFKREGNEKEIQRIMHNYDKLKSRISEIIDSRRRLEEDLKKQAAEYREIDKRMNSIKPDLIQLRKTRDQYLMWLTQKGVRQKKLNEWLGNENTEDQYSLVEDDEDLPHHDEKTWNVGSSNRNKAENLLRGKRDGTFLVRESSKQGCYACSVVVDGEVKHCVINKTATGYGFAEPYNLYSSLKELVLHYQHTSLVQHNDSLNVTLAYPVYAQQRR
pIC50: −log10 of the molar value.
pIC50 reference

Example molecules with recorded pIC50:
Request: pIC50, test system human PI3Kα (Homo sapiens (Human), UniProt P42336), entry O=C(CN1c2nc(N3C[C@@H]4C[C@H]3CO4)cc(=O)n2CC[C@H]1C(F)(F)F)c1cnc(OCC2CC2)nc1
< 5.00

Now the same for O=C(CN1c2nc(N3C[C@@H]4C[C@H]3CO4)cc(=O)n2CC[C@H]1C(F)(F)F)c1cccnc1
≤ 5.00

Would you kindly look at the next entry?
Request: pIC50, test system human PI3Kα (Homo sapiens (Human), UniProt P42336), entry CCOC(=O)Nc1ccc(C(=O)CN2c3nc(N4C[C@@H]5C[C@H]4CO5)cc(=O)n3CC[C@H]2C(F)(F)F)cn1
< 5.00

The reported numbers originate from patent US9321790B2.
